- experimentDescription: Metabolic stability in mouse liver microsomes assessed as intrinsic clearance at 10 uM preincubated for 5 mins followed by NADPH addition and measured upto 65 mins by LC-MS/MS analysis
- Assay type: ADME, Microsome
- conditionInfo: time < 70 min, read-out: CLH
attributeMeasured: microsomal CLint at 10 µM (µL/min/mg)
Numbers only here, please. The scale is µL/min/mg.

C[C@H](CCC(C)(C)O)[C@H]1CC[C@H]2[C@@H]3CC=C4C[C@@](C)(O)CC[C@]4(C)[C@H]3CC[C@]12C = 42

Item CC[C@](C)(O)CC[C@@H](C)[C@H]1CC[C@H]2[C@@H]3CC=C4C[C@@](C)(O)CC[C@]4(C)[C@H]3CC[C@]12C has what recorded microsomal CLint at 10 µM?
8.4

Entry CC(C)[C@@](C)(O)CC[C@@H](C)[C@H]1CC[C@H]2[C@@H]3CC=C4C[C@@](C)(O)CC[C@]4(C)[C@H]3CC[C@]12C has what microsomal CLint at 10 µM?
31
